Tested on: NCI-H522 lung
Test: NCI tumour cell line growth inhibition, 48 h
assay_readout: log10 of TGI (log10 of the value in µM)
Answers are given as log10 of TGI in µM.

# log10 of TGI (molecule: "COc1cccc(C#Cc2ccccc2C#CCCCCO)c1" ) is 1.48

***
Noted for O=C1CSC(c2ccc(Cl)cc2Cl)N1c1ccc(F)cc1 (stereo not drawn) : its log10 of TGI reads 1.49

Sample "CCN(CC)c1ccc(N=Nc2ccc(-c3nc4ccc[n+](C)c4s3)cc2)cc1" ; log10 of TGI observed: 1.45

According to the records, this molecule O=C(O)C1C(Br)(c2ccccc2)C1(Br)c1ccccc1 (stereo not drawn) displays log10 of TGI of 1.64

Quick note, log10 of TGI for "N#Cc1c(Cl)cc(Cl)n2c1nc1ccccc12" landed at 0.56

Reported log10 of TGI of "COc1cc(/C=C/c2ccc(OC)c(OC)c2)cc(OC)c1" : 1.82

The molecule identified as "Nc1ccc(-c2nc3ccc(Cc4ccc5nc(-c6ccc(N)cc6)[nH]c5c4)cc3[nH]2)cc1" registered its log10 of TGI at 0.69

Quick note, log10 of TGI for CN(C)c1ccc(C2SCC(=O)N2c2ccc(Oc3ccc(Cl)cc3)c(Cl)c2)cc1 (stereo not drawn) landed at 1.63
